The following sequences are listed with their measured self-splicing fitness (ln) values.
Experiment: self-splicing fitness, log relative to wild type (ln ratio); higher = more splicing; Tetrahymena group I intron in knt gene, E. coli kanamycin selection, DiMSum; sequences stand for … in CUCUCU…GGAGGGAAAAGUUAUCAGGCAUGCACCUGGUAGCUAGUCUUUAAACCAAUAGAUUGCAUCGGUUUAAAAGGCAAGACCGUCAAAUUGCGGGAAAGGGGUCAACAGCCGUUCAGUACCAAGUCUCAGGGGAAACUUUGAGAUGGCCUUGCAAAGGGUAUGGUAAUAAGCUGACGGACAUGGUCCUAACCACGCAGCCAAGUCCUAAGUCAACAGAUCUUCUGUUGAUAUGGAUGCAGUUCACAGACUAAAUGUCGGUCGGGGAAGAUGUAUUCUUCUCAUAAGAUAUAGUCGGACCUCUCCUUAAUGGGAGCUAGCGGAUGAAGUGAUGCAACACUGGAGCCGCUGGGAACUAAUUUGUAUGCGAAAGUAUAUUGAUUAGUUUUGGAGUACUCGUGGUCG;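 also: selection with 25 µg/mL kanamycin versus none on LB agar overnight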
Conditions: 30 °C

[
  {
    "sequence code": "GCCUAGCAAUAUUACGAAAG",
    "self-splicing fitness (ln)": -4.21
  },
  {
    "sequence code": "ACGAAGCAAUAUUACGAUCU",
    "self-splicing fitness (ln)": -0.659
  },
  {
    "sequence code": "AUCAAGCAAUAUUACGACGA",
    "self-splicing fitness (ln)": -1.26
  },
  {
    "sequence code": "UGGCAGCAAUAUUACGUGUC",
    "self-splicing fitness (ln)": -3.85
  },
  {
    "sequence code": "AGGUAGCAAUAUUACGGGCC",
    "self-splicing fitness (ln)": -1.74
  },
  {
    "sequence code": "GCGGAGCAAUAUUACGUCUU",
    "self-splicing fitness (ln)": -2.3
  },
  {
    "sequence code": "CAGGAGCAAUAUUACGCAGG",
    "self-splicing fitness (ln)": -2.36
  },
  {
    "sequence code": "ACACAGCAAUAUUACGGAUU",
    "self-splicing fitness (ln)": -2.18
  }
]

====

Test: self-splicing fitness, log relative to wild type (ln ratio); higher = more splicing; Tetrahymena group I intron in knt gene, E. coli kanamycin selection, DiMSum; sequences stand for … in CUCUCU…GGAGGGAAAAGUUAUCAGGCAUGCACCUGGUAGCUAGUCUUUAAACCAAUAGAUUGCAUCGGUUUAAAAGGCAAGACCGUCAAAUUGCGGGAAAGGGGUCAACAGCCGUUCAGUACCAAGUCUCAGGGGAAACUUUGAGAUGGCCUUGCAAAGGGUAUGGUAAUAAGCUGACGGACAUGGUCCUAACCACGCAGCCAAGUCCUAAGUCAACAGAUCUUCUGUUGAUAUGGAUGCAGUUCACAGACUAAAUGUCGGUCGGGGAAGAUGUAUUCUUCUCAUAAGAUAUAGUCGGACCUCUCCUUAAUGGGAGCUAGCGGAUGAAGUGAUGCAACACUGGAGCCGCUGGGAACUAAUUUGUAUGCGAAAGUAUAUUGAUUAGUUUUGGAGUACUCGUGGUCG
Details: 37 °C
quantity name: self-splicing fitness (ln)

[
  {
    "sequence code": "UGUCAGCAAUAUUACGAAUC",
    "value reported": -1.08
  },
  {
    "sequence code": "CUCAAGCAAUAUUACGUGCG",
    "value reported": -0.8
  },
  {
    "sequence code": "AGACAGCAAUAUUACGGCAG",
    "value reported": -1.09
  },
  {
    "sequence code": "AUGAAGCAAUAUUACGGCGC",
    "value reported": 0.665
  },
  {
    "sequence code": "ACGCAGCAAUAUUACGCCAC",
    "value reported": -3.22
  },
  {
    "sequence code": "ACCUAGCAAUAUUACGGCUG",
    "value reported": -2.32
  },
  {
    "sequence code": "UAACAGCAAUAUUACGUGUU",
    "value reported": -2.34
  },
  {
    "sequence code": "GAUGAGCAAUAUUACGGUAA",
    "value reported": -2.95
  }
]

====

Test: self-splicing fitness, log relative to wild type (ln ratio); higher = more splicing; Tetrahymena group I intron in knt gene, E. coli kanamycin selection, DiMSum; sequences stand for … in CUCUCU…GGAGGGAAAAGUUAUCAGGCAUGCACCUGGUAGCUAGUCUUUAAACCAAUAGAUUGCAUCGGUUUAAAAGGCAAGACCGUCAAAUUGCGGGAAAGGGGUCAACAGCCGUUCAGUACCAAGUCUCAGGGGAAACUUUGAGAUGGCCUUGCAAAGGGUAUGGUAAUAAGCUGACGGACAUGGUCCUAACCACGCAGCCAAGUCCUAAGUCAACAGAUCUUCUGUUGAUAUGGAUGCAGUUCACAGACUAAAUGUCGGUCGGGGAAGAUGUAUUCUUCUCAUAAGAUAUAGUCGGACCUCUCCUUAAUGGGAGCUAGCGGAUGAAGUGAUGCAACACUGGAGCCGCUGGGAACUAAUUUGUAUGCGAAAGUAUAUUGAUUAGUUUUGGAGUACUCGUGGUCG
Conditions: 30 °C

[
  {
    "sequence code": "GCAUAGCAAUAUUACGUUAU",
    "self-splicing fitness (ln)": -2.61
  },
  {
    "sequence code": "UGAUAGCAAUAUUACGCAAC",
    "self-splicing fitness (ln)": -3.43
  },
  {
    "sequence code": "UACAAGCAAUAUUACGCGGU",
    "self-splicing fitness (ln)": -3.61
  },
  {
    "sequence code": "UACGAGCAAUAUUACGGGGA",
    "self-splicing fitness (ln)": -2.87
  },
  {
    "sequence code": "GAACAGCAAUAUUACGUCUU",
    "self-splicing fitness (ln)": -0.598
  },
  {
    "sequence code": "GACUAGCAAUAUUACGCACU",
    "self-splicing fitness (ln)": -0.55
  },
  {
    "sequence code": "UCUCAGCAAUAUUACGAAAA",
    "self-splicing fitness (ln)": -1.84
  },
  {
    "sequence code": "GGUAAGCAAUAUUACGCACA",
    "self-splicing fitness (ln)": -0.755
  },
  {
    "sequence code": "UAGGAGCAAUAUUACGGCCA",
    "self-splicing fitness (ln)": -2.27
  },
  {
    "sequence code": "GAUUAGCAAUAUUACGGGAA",
    "self-splicing fitness (ln)": -1.67
  },
  {
    "sequence code": "GACCAGCAAUAUUACGUAUG",
    "self-splicing fitness (ln)": -1.75
  },
  {
    "sequence code": "UACGAGCAAUAUUACGUCGU",
    "self-splicing fitness (ln)": -4.08
  },
  {
    "sequence code": "GCCUAGCAAUAUUACGUCCG",
    "self-splicing fitness (ln)": -3
  },
  {
    "sequence code": "GGUCAGCAAUAUUACGAUAG",
    "self-splicing fitness (ln)": -1.37
  },
  {
    "sequence code": "UAUUAGCAAUAUUACGUACG",
    "self-splicing fitness (ln)": -0.0813
  },
  {
    "sequence code": "UUUAAGCAAUAUUACGAACG",
    "self-splicing fitness (ln)": -1.08
  },
  {
    "sequence code": "CCAAAGCAAUAUUACGGGUU",
    "self-splicing fitness (ln)": -2.96
  },
  {
    "sequence code": "GGAGAGCAAUAUUACGUAGU",
    "self-splicing fitness (ln)": -1.91
  },
  {
    "sequence code": "AUCAAGCAAUAUUACGCAUU",
    "self-splicing fitness (ln)": -2.32
  },
  {
    "sequence code": "AGAAAGCAAUAUUACGAGCA",
    "self-splicing fitness (ln)": -0.695
  },
  {
    "sequence code": "GGCCAGCAAUAUUACGACCA",
    "self-splicing fitness (ln)": -1.46
  },
  {
    "sequence code": "GACUAGCAAUAUUACGGUUU",
    "self-splicing fitness (ln)": -1.7
  },
  {
    "sequence code": "GAUUAGCAAUAUUACGACGC",
    "self-splicing fitness (ln)": 0.277
  },
  {
    "sequence code": "UCGCAGCAAUAUUACGGUGA",
    "self-splicing fitness (ln)": -4.44
  },
  {
    "sequence code": "GAUGAGCAAUAUUACGUCGU",
    "self-splicing fitness (ln)": -2.4
  },
  {
    "sequence code": "CUGGAGCAAUAUUACGACGG",
    "self-splicing fitness (ln)": -3.79
  },
  {
    "sequence code": "CUUCAGCAAUAUUACGUCAU",
    "self-splicing fitness (ln)": -3.34
  },
  {
    "sequence code": "AUGAAGCAAUAUUACGGCGC",
    "self-splicing fitness (ln)": -0.339
  },
  {
    "sequence code": "UGAAAGCAAUAUUACGAAAU",
    "self-splicing fitness (ln)": -3.67
  },
  {
    "sequence code": "AUUAAGCAAUAUUACGAUGU",
    "self-splicing fitness (ln)": -0.608
  },
  {
    "sequence code": "AAUCAGCAAUAUUACGAGAC",
    "self-splicing fitness (ln)": -3.64
  },
  {
    "sequence code": "GGUUAGCAAUAUUACGGUUU",
    "self-splicing fitness (ln)": -0.608
  },
  {
    "sequence code": "GGUGAGCAAUAUUACGUCCG",
    "self-splicing fitness (ln)": -1.13
  },
  {
    "sequence code": "AGAGAGCAAUAUUACGCACG",
    "self-splicing fitness (ln)": -2.18
  },
  {
    "sequence code": "AGUAAGCAAUAUUACGGGCU",
    "self-splicing fitness (ln)": -1.28
  },
  {
    "sequence code": "GUCGAGCAAUAUUACGAUAU",
    "self-splicing fitness (ln)": -1.44
  },
  {
    "sequence code": "GUUAAGCAAUAUUACGGGGC",
    "self-splicing fitness (ln)": -3.5
  },
  {
    "sequence code": "AUGAAGCAAUAUUACGUCGC",
    "self-splicing fitness (ln)": -2.24
  },
  {
    "sequence code": "CGAUAGCAAUAUUACGCGCG",
    "self-splicing fitness (ln)": -2.92
  },
  {
    "sequence code": "UCUGAGCAAUAUUACGCACG",
    "self-splicing fitness (ln)": -3.08
  },
  {
    "sequence code": "UCAUAGCAAUAUUACGGAUG",
    "self-splicing fitness (ln)": -2.58
  },
  {
    "sequence code": "CGUUAGCAAUAUUACGAAAA",
    "self-splicing fitness (ln)": -2.76
  },
  {
    "sequence code": "GUUAAGCAAUAUUACGCUAG",
    "self-splicing fitness (ln)": -1.64
  },
  {
    "sequence code": "GACUAGCAAUAUUACGCAGU",
    "self-splicing fitness (ln)": -3.21
  },
  {
    "sequence code": "GGGCAGCAAUAUUACGUUUG",
    "self-splicing fitness (ln)": -1.17
  },
  {
    "sequence code": "CCACAGCAAUAUUACGCUCU",
    "self-splicing fitness (ln)": -4.07
  },
  {
    "sequence code": "AGUGAGCAAUAUUACGGAUU",
    "self-splicing fitness (ln)": -3.48
  },
  {
    "sequence code": "UAACAGCAAUAUUACGGUGG",
    "self-splicing fitness (ln)": -1.67
  },
  {
    "sequence code": "GUGGAGCAAUAUUACGUAUU",
    "self-splicing fitness (ln)": -3.11
  },
  {
    "sequence code": "AAUUAGCAAUAUUACGCAAU",
    "self-splicing fitness (ln)": -2.4
  },
  {
    "sequence code": "GGGUAGCAAUAUUACGCACG",
    "self-splicing fitness (ln)": -2.15
  },
  {
    "sequence code": "UUACAGCAAUAUUACGUGAG",
    "self-splicing fitness (ln)": -0.626
  },
  {
    "sequence code": "AAGGAGCAAUAUUACGGGUU",
    "self-splicing fitness (ln)": -2.46
  },
  {
    "sequence code": "GCAAAGCAAUAUUACGUCCC",
    "self-splicing fitness (ln)": -0.828
  },
  {
    "sequence code": "ACCCAGCAAUAUUACGAGAA",
    "self-splicing fitness (ln)": -1.61
  },
  {
    "sequence code": "CAAUAGCAAUAUUACGGCAA",
    "self-splicing fitness (ln)": -3.51
  },
  {
    "sequence code": "AGAGAGCAAUAUUACGGAUU",
    "self-splicing fitness (ln)": -2.87
  },
  {
    "sequence code": "UGGAAGCAAUAUUACGUACG",
    "self-splicing fitness (ln)": -0.898
  },
  {
    "sequence code": "CCUCAGCAAUAUUACGCUAG",
    "self-splicing fitness (ln)": -4.45
  },
  {
    "sequence code": "CGUAAGCAAUAUUACGCAAU",
    "self-splicing fitness (ln)": -3.61
  },
  {
    "sequence code": "CCUUAGCAAUAUUACGGACU",
    "self-splicing fitness (ln)": -2.41
  },
  {
    "sequence code": "GUCAAGCAAUAUUACGAGGC",
    "self-splicing fitness (ln)": -3.94
  },
  {
    "sequence code": "CUUAAGCAAUAUUACGCACC",
    "self-splicing fitness (ln)": -1.86
  },
  {
    "sequence code": "AUCUAGCAAUAUUACGAACU",
    "self-splicing fitness (ln)": -0.13
  },
  {
    "sequence code": "AGGAAGCAAUAUUACGCAGC",
    "self-splicing fitness (ln)": -3.55
  },
  {
    "sequence code": "AGAAAGCAAUAUUACGUCGU",
    "self-splicing fitness (ln)": -1.9
  },
  {
    "sequence code": "CGCAAGCAAUAUUACGGUCC",
    "self-splicing fitness (ln)": -1.07
  }
]
